- condition-summary: 313.15 K; 35000 kPa; Liquid; Vibrating tube method
property-label: mass density (kg/m3)
The answer is to be given in kg/m3; state only the numeric part.

CCCCOCC [butyl ethyl ether] :: 764.5

In: Which mass density is listed for CC(C)OC(C)C [diisopropyl ether] ?
Out: 742.55

In: Which mass density is listed for CCOC(C)(C)C [2-ethoxy-2-methylpropane] ?
Out: 757.81

In: Which mass density is listed for CCCOCCC [dipropyl ether] ?
Out: 762.71

---

The compounds listed here are annotated with their mass density.
- condition-summary: 288.15 K; 45000 kPa; Liquid; Vibrating tube method
The answer is to be given in kg/m3; state only the numeric part.

A selection of reference data follows.
CCCCCOCCCCC :: 816.78
CC(C)CCOCCC(C)C :: 810.19
CCCOCCC :: 789.68
CCCCOCC :: 791.13
COC(C)(C)C :: 785.49

In: Which mass density is listed for CC(C)OC(C)C ?
Out: 770.68

In: Which mass density is listed for CCCCOC ?
Out: 788.24

In: Which mass density is listed for CCOC(C)(C)C ?
Out: 785.55

---

- condition-summary: 318.15 K; 65000 kPa; Liquid; Vibrating tube method
property-label: mass density (kg/m3)
The answer is to be given in kg/m3; state only the numeric part.

COC(C)(C)C :: 776.82
CC(C)OC(C)C :: 762.85
CC(C)CCOCCC(C)C :: 802.85
CCOC(C)(C)C :: 777.13
CCCCOCC :: 782.35
CCCCCOCCCCC :: 808.83
CCCOCCC :: 780.73

Now, please, on to the next compound.
In: Which mass density is listed for CCCCOC ?
Out: 779.13

---

- condition-summary: 308.15 K; 35000 kPa; Liquid; Vibrating tube method
The compounds listed here are annotated with their mass density.
The answer is to be given in kg/m3; state only the numeric part.

A selection of reference data follows.
COC(C)(C)C :: 761.6
CC(C)CCOCCC(C)C :: 790.52
CCCOCCC :: 766.7

In: Which mass density is listed for CCOC(C)(C)C ?
Out: 761.9

---

The compounds listed here are annotated with their mass density.
- condition-summary: 283.15 K; 65000 kPa; Liquid; Vibrating tube method
The answer is to be given in kg/m3; state only the numeric part.

CCCCCOCCCCC [dipentyl ether] :: 830.58

In: Which mass density is listed for CCOC(C)(C)C [2-ethoxy-2-methylpropane] ?
Out: 802.42

In: Which mass density is listed for CC(C)OC(C)C [diisopropyl ether] ?
Out: 788.07

---

The molecules listed here are annotated with their mass density.
- condition-summary: 333.15 K; 15000 kPa; Liquid; Vibrating tube method
The answer is to be given in kg/m3; state only the numeric part.

A selection of reference data follows.
CC(C)CCOCCC(C)C [di-(3-methylbutyl) ether] :: 757.12
CCCCCOCCCCC [dipentyl ether] :: 764.69
CCOC(C)(C)C [2-ethoxy-2-methylpropane] :: 719.84
CC(C)OC(C)C [diisopropyl ether] :: 703.52
CCCCOCC [butyl ethyl ether] :: 729.03
CCCCOC [butyl methyl ether] :: 723.77

Now, please, on to the next molecule.
In: Which mass density is listed for CCCOCCC [dipropyl ether] ?
Out: 726.88
